- Tested on: MDA-MB-468 breast
- RUN DESCRIPTION: NCI tumour cell line growth inhibition, 48 h
PROPERTY MEASURED: log10(TGI) (log10 of the value in µM)

compound=O=C(Nc1ncc([N+](=O)[O-])s1)c1cccc([N+](=O)[O-])c1 property_measured=log10(TGI) reported=1.59
compound=CCN(CC)c1ccc2[nH]c3c(C(N)=O)cc(=O)c(=O)c=3oc2c1 property_measured=log10(TGI) reported=0.68
compound="CC1(C)CC[C@]2(C(=O)O)CC[C@]3(C)C(=CCC4[C@@]5(C)C[C@@H](O)[C@@H]6OC(c7ccccc7Br)OC[C@@]6(C)C5CC[C@]43C)C2C1 (stereo partly drawn)" property_measured=log10(TGI) reported=1.32
compound=c1ccc2c(NCCCn3ccnc3)c3oc4ccccc4c3nc2c1 property_measured=log10(TGI) reported=0.53
compound=COc1ccc(-c2nc3sccn3c2/C=C/C(=O)c2cc(OC)c(OC)c(OC)c2)cc1OC property_measured=log10(TGI) reported=0.70
compound=Cn1cc(-c2nc(-c3c[nH]c4ncccc34)cs2)c2cc(Cl)ccc21 property_measured=log10(TGI) reported=0.37

====

- Tested on: MDA-MB-468 breast
- RUN DESCRIPTION: NCI tumour cell line growth inhibition, 48 h
PROPERTY MEASURED: GI50

smiles_data=Nc1nc(-c2cccc([N+](=O)[O-])c2)c(N=Nc2ccccc2[N+](=O)[O-])s1 property_measured=GI50 reported="2.7 µM"
smiles_data=COc1ccc(C(=O)c2cc(OC)c(OC)c(OC)c2)cc1/C=C/C(=O)c1ccc(O)cc1 property_measured=GI50 reported="2.07 µM"
smiles_data=Clc1ccc(Nc2ccnc(NCCNc3ccnc4cc(Cl)ccc34)n2)cc1 property_measured=GI50 reported="1.06 µM"

====

- Tested on: MDA-MB-468 breast
- RUN DESCRIPTION: NCI tumour cell line growth inhibition, 48 h
PROPERTY MEASURED: TGI (µM)

molecule="Cc1cccc(NC(=O)[C@]23CCC(C)(C)CC2C2=CCC4[C@@]5(C)C[C@@H](O)[C@H](O)[C@@](C)(CO)C5CC[C@@]4(C)[C@]2(C)CC3)c1 (some centres undefined)" reported=20.4
molecule=Nc1nc(-c2cccc([N+](=O)[O-])c2)c(N=Nc2ccccc2[N+](=O)[O-])s1 reported=26.2
molecule=COc1ccc(C(=O)c2cc(OC)c(OC)c(OC)c2)cc1/C=C/C(=O)c1ccc(O)cc1 reported=8.09
molecule=OCc1ccc(N(Cc2ccc(F)cc2)C2CCC2)cc1Cl reported=0.0464

====

# reported GI50; entries follow
- System: MDA-MB-468 breast
- RUN DESCRIPTION: NCI tumour cell line growth inhibition, 48 h
PROPERTY MEASURED: GI50

compound=Cc1c(C(=O)CCl)c(=O)n(-c2ccccc2)n1C reported="0.675 µM"
compound=Cn1cc(-c2nc(-c3c[nH]c4ncccc34)cs2)c2cc(Cl)ccc21 reported="0.316 µM"
compound=O=C(CSc1nc2ccc([N+](=O)[O-])cc2[nH]1)Nc1cccc(C(F)(F)F)c1 reported="0.964 µM"
compound=O=C(Nc1ncc([N+](=O)[O-])s1)c1cccc([N+](=O)[O-])c1 reported="3.42 µM"
compound=O=C1c2[nH]cc(CN[C@@H]3CCCN3)c2C(=O)c2c1c(O)c1ccccc1c2O reported="1.18 µM"
compound="O=P(Oc1ccccc1)(Oc1ccccc1)C(O)c1ccccc1 (centres undefined)" reported="35 µM"
compound=C=C1C(=O)O[C@H]2[C@H]1CC/C(COC(=O)/C=C/c1cccnc1)=C\CC[C@@]1(C)O[C@@H]21 reported="0.831 µM"
compound="Cc1cccc(NC(=O)[C@]23CCC(C)(C)CC2C2=CCC4[C@@]5(C)C[C@@H](O)[C@H](O)[C@@](C)(CO)C5CC[C@@]4(C)[C@]2(C)CC3)c1 (some centres undefined)" reported="5.17 µM"
compound=COc1ccc(-c2nc3sccn3c2/C=C/C(=O)c2cc(OC)c(OC)c(OC)c2)cc1OC reported="2.15 µM"
